target: T1, human LAP-TGFB1 Fc fusion (human); experiment: BLI off-rate screen
T1 construct: also called human LAP-TGFβ1-Fc; human LAP-TGFβ-Fc isoform 1
T1 sequence (chain, as listed by the source limits assumed): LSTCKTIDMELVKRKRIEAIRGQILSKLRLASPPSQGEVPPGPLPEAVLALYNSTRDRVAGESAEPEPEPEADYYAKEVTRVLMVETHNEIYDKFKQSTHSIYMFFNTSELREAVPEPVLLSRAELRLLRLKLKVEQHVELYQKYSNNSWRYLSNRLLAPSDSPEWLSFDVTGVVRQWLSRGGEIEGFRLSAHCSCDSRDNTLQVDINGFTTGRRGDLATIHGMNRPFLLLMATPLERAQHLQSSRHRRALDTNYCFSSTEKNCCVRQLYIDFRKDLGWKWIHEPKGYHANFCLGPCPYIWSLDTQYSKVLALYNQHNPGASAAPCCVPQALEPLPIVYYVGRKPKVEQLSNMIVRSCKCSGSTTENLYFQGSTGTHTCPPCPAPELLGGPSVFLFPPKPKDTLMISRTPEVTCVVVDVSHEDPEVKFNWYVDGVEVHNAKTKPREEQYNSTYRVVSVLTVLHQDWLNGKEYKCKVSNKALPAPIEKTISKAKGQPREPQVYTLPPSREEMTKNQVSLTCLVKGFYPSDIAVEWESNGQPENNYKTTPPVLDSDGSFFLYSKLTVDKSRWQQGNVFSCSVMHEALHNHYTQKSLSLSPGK
Reported Fold change values for the following binders.
Supply the numeric figure in fold, leaving out any unit text.

Recorded Fold change, per entry:
binder	Fold change (fold)
VH S31R (25BIT) (Fab, V domains shown, Light chain: parental 20E6 LC, implied) VH: EVQLVQSGAEVKKPGASVKVSCKASGYTFTRYWMHWVRQAPGQGLEWMGRIDPQSGGIKYAQKFQGRATLTVDTSTSTAYMELSRLRSDDTAVYYCARWDYGGYFDVWGQGTLVTVSS VL: DIQMTQSPSSLSASVGDRVTITCRASQDITNYLNWYQQKPGKAVKLLIYYTSRLHSGVPSRFSGSGSGTDYTLTISSLQPEDFATYFCQQGDTLPWTFGQGTKLEIKR	1
VL R53D (35BIT) (Fab, V domains shown, Heavy chain: parental 20E6 Fab HC, implied) VH: EVQLVQSGAEVKKPGASVKVSCKASGYTFTSYWMHWVRQAPGQGLEWMGRIDPQSGGIKYAQKFQGRATLTVDTSTSTAYMELSRLRSDDTAVYYCARWDYGGYFDVWGQGTLVTVSS VL: DIQMTQSPSSLSASVGDRVTITCRASQDITNYLNWYQQKPGKAVKLLIYYTSDLHSGVPSRFSGSGSGTDYTLTISSLQPEDFATYFCQQGDTLPWTFGQGTKLEIKR	1.2

In the following, a different binder is considered.
Query block: What Fold change value was documented for this binder, VH K59Q (28BIT) (Fab, V domains shown, Light chain: parental 20E6 LC, implied) VH: EVQLVQSGAEVKKPGASVKVSCKASGYTFTSYWMHWVRQAPGQGLEWMGRIDPQSGGIQYAQKFQGRATLTVDTSTSTAYMELSRLRSDDTAVYYCARWDYGGYFDVWGQGTLVTVSS VL: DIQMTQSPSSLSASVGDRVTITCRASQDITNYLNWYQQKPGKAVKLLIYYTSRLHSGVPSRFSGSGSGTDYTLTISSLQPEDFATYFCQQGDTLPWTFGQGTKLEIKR ?
Result block: 0.7
